- procedure summary: cytotoxicity in the anti-HIV assay (CC50)
- Format: cell-based
- experimental parameters: human, MAGI cells (HeLa-CD4-LTR/beta-galactosidase)
measure name: CC50

Problem: CC50 for C=C1CC[C@@H]2[C@](C)(CC[C@H]3O[C@H](C=C(C)C)C[C@@]23C)[C@@H]1Cc1c(OC)oc(CO)c(C)c1=O [Compound 20] ?
Solution: > 10 µM

* * *

- target: Aβ42 (Homo sapiens, UniProt P05067)
- Sequence (P05067 672-713): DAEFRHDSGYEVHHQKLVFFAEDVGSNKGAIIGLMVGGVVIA
- procedure summary: Th-T (thioflavin-T) assay of Aβ42 aggregation
- Assay type: biochemical
- experimental parameters: time-course reading M99; Supplementary Fig. 47 source data
measure name: Th-T fluorescence, mean of three wells
Give a plain numeric answer without units written out.

Problem: Th-T fluorescence, mean of three wells for C=C1CC[C@H]2[C@]3(C)C[C@H](C=C(C)C)O[C@H]3CC[C@]2(C)[C@@H]1Cc1c(OC)oc(C)c(C)c1=O [Compound 24] ?
Solution: 3.988

Problem: Th-T fluorescence, mean of three wells for C=C1CCC2C(C)(CCC=C(C)C)C(O)CCC2(C)C1Cc1c(O)c(C)c(C)oc1=O (stereo not shown) [Compound 4] ?
Solution: 2.818

Problem: Th-T fluorescence, mean of three wells for C=C1CC[C@H]2[C@]3(C)C[C@@H](C=C(C)C)O[C@H]3CC[C@]2(C)[C@@H]1Cc1c(O)c(C)c(C)oc1=O [Compound 5, subglutinol A] ?
Solution: 2.707

Problem: Th-T fluorescence, mean of three wells for C=C1CCC2C(C)(CCC=C(C)C)C(O)CCC2(C)C1Cc1c(OC)oc(CO)c(C)c1=O (stereo not shown) [Compound 12] ?
Solution: 2.073

* * *

I'd appreciate it if you could supply Th-T assay plate reading, mean of three wells (Supplementary Fig. 47) values for the items below.
- target: UniProt P05067
- procedure summary: Th-T (thioflavin-T) assay of Aβ42 aggregation
- Type: biochemical
- experimental parameters: measurement M1; source data, Ab alone and No Ab as controls
Give a plain numeric answer without units written out.

Problem: Th-T assay plate reading, mean of three wells (Supplementary Fig. 47) for "C=C1CC[C@@H]2[C@](C)(CC[C@H]3O[C@H](C=C(C)C)C[C@@]23C)[C@@H]1Cc1c(O)c(C)c(C)oc1=O" ?
Solution: 0.2982

Problem: Th-T assay plate reading, mean of three wells (Supplementary Fig. 47) for "CC(C)=CCC/C(C)=C/CC/C(C)=C/CC/C(C)=C/Cc1c(O)c(C)c(C)oc1=O" ?
Solution: 0.5144

Problem: Th-T assay plate reading, mean of three wells (Supplementary Fig. 47) for "C=C1CC[C@H]2[C@]3(C)C[C@H](C=C(C)C)O[C@H]3CC[C@]2(C)[C@@H]1Cc1c(O)c(C)c(C)oc1=O" ?
Solution: 0.3106

Problem: Th-T assay plate reading, mean of three wells (Supplementary Fig. 47) for C=C1CCC2C(C)(CCC=C(C)C)C(O)CCC2(C)C1Cc1c(OC)oc(CO)c(C(=O)OC)c1=O (centres unmarked) ?
Solution: 0.2585

Problem: Th-T assay plate reading, mean of three wells (Supplementary Fig. 47) for C=C1CCC2C(C)(CCC=C(C)C)C(O)CCC2(C)C1Cc1c(OC)oc(C)c(C)c1=O (centres unmarked) [Compound 15, viridoxin A hydrolysate] ?
Solution: 0.2276

Problem: Th-T assay plate reading, mean of three wells (Supplementary Fig. 47) for C=C1CCC2C(C)(CC(=O)C=C(C)C)C(O)CCC2(C)C1Cc1c(OC)oc(C)c(C)c1=O (centres unmarked) ?
Solution: 0.2149

Problem: Th-T assay plate reading, mean of three wells (Supplementary Fig. 47) for "C=C1CC[C@H]2[C@]3(C)C[C@@H](C=C(C)C)O[C@H]3CC[C@]2(C)[C@@H]1Cc1c(OC)oc(CO)c(C)c1=O" ?
Solution: 0.2517

Problem: Th-T assay plate reading, mean of three wells (Supplementary Fig. 47) for C=C1CCC2C(C)(CCC=C(C)C)C(O)CCC2(C)C1Cc1c(OC)oc(C)c(C)c1=O (centres unmarked) [Compound 11] ?
Solution: 0.2852

Problem: Th-T assay plate reading, mean of three wells (Supplementary Fig. 47) for "C=C1CC[C@H]2[C@]3(C)C[C@H](C=C(C)C)O[C@H]3CC[C@]2(C)[C@@H]1Cc1c(OC)oc(CO)c(C)c1=O" ?
Solution: 0.2027

Problem: Th-T assay plate reading, mean of three wells (Supplementary Fig. 47) for "C=C1CC[C@H]2[C@]3(C)C[C@@H](C=C(C)C)O[C@H]3CC[C@]2(C)[C@@H]1Cc1c(O)c(C)c(C)oc1=O" ?
Solution: 0.28

Problem: Th-T assay plate reading, mean of three wells (Supplementary Fig. 47) for "C=C1CC[C@@H]2[C@](C)(CC[C@H]3O[C@H](C=C(C)C)C[C@@]23C)[C@@H]1Cc1c(OC)oc(CO)c(C(=O)OC)c1=O" ?
Solution: 0.221

Problem: Th-T assay plate reading, mean of three wells (Supplementary Fig. 47) for C=C1CCC2C(C)(CC(=O)C=C(C)C)C(O)CCC2(C)C1Cc1c(O)c(C)c(C)oc1=O (centres unmarked) ?
Solution: 0.291

Problem: Th-T assay plate reading, mean of three wells (Supplementary Fig. 47) for C=C1CCC2C(C)(CCC=C(C)C)C(O)CCC2(C)C1Cc1c(O)c(C)c(C)oc1=O (centres unmarked) [Compound 9, higginsianin B] ?
Solution: 0.2408

Problem: Th-T assay plate reading, mean of three wells (Supplementary Fig. 47) for C=C1CCC2C3(C)CC(C=C(C)C)OC3CCC2(C)C1Cc1c(OC)oc(C)c(C)c1=O (centres unmarked) ?
Solution: 0.1917

Problem: Th-T assay plate reading, mean of three wells (Supplementary Fig. 47) for C=C1CCC2C(C)(CCC=C(C)C)C(O)CCC2(C)C1Cc1c(OC)oc(C)c(C(=O)OC)c1=O (centres unmarked) ?
Solution: 0.2816

Problem: Th-T assay plate reading, mean of three wells (Supplementary Fig. 47) for C=C1CCC2C(C)(CCC=C(C)C)C(O)CCC2(C)C1Cc1c(O)c(C)c(C)oc1=O (centres unmarked) [Compound 4] ?
Solution: 0.3186

Problem: Th-T assay plate reading, mean of three wells (Supplementary Fig. 47) for "C=C1CC[C@@H]2[C@](C)(CC[C@H]3O[C@H](C=C(C)C)C[C@@]23C)[C@@H]1Cc1c(OC)oc(CO)c(C)c1=O" ?
Solution: 0.2292

Problem: Th-T assay plate reading, mean of three wells (Supplementary Fig. 47) for C=C1CCC2C(C)(CC(=O)C=C(C)C)C(O)CCC2(C)C1Cc1c(OC)oc(CO)c(C)c1=O (centres unmarked) ?
Solution: 0.2658

Problem: Th-T assay plate reading, mean of three wells (Supplementary Fig. 47) for "C=C1CC[C@H]2[C@]3(C)C[C@H](C=C(C)C)O[C@H]3CC[C@]2(C)[C@@H]1Cc1c(OC)oc(C)c(C)c1=O" ?
Solution: 0.168

Problem: Th-T assay plate reading, mean of three wells (Supplementary Fig. 47) for C=C1CCC2C(C)(CCC=C(C)C)C(O)CCC2(C)C1Cc1c(OC)oc(CO)c(C)c1=O (centres unmarked) ?
Solution: 0.2937

* * *

- target: Aβ42 (Homo sapiens)
- procedure summary: Th-T (thioflavin-T) assay of Aβ42 aggregation
- Assay type: biochemical
- experimental parameters: Supplementary Fig. 47; reading M142
Binary call on Th-T fluorescence, mean of three wells: Yes from 3 upward, No beneath that.

Problem: Can C=C1CCC2C(C)(CCC=C(C)C)C(O)CCC2(C)C1Cc1c(OC)oc(C)c(C)c1=O (stereo not shown) [Compound 11] be said to have Th-T fluorescence, mean of three wells at or above 3?
Solution: Yes

Problem: Can C=C1CCC2C(C)(CC(=O)C=C(C)C)C(O)CCC2(C)C1Cc1c(O)c(C)c(C)oc1=O (stereo not shown) [Compound 7] be said to have Th-T fluorescence, mean of three wells at or above 3?
Solution: Yes

Problem: Can C=C1CC[C@H]2[C@]3(C)C[C@@H](C=C(C)C)O[C@H]3CC[C@]2(C)[C@@H]1Cc1c(OC)oc(CO)c(C)c1=O [Compound 17] be said to have Th-T fluorescence, mean of three wells at or above 3?
Solution: Yes

Problem: Can C=C1CCC2C(C)(CCC=C(C)C)C(=O)CCC2(C)C1Cc1c(O)c(C)c(C)oc1=O (stereo not shown) [Compound 8] be said to have Th-T fluorescence, mean of three wells at or above 3?
Solution: No

Problem: Can C=C1CCC2C(C)(CCC=C(C)C)C(O)CCC2(C)C1Cc1c(O)c(C)c(C)oc1=O (stereo not shown) [Compound 4] be said to have Th-T fluorescence, mean of three wells at or above 3?
Solution: No
